Recorded values, source patent US20230250096A1.

# System: KO-52 cells
# Experimental Protocol: Proliferation assay (spheroid confluence, 8 days), KO-52 control cell line
# Assay type: cell-based, human
# Condition Context: Homo sapiens, read-out: spheroid assay_KO-52 IC50
Readings of IC50 for the listed compounds
Enter your answer as a number in nM; do not include the unit.

{"Compound": "COCCN(C)CCCC(C(C)C)N1CCC(Cc2cn(-c3ccc(F)cc3C(=O)N(C)C(C)C)c3cncc(F)c23)C1 (stereo not drawn)", "Assay Metric": "IC50", "Readout Units": "nM", "Recorded Result": 1500}
{"Compound": "Cc1cncc2c1c(CC1CCN(CC3CCN(C(=O)N4CCOCC4)CC3)CC1)cn2-c1ccc(F)cc1C(=O)N(C)C(C)C", "Assay Metric": "IC50", "Readout Units": "nM", "Recorded Result": 1600}

Moving on to the next compound.
The measured IC50 associated with Cc1cncc2c1c(C[C@H]1CCN(CC(C)C)C1)cn2-c1ccc(F)cc1C(=O)N(C)C(C)C (single isomer, unassigned) reads 6200
